Items are presented alongside their recorded MICCombination (antibiotic).
Tested on: PA 101243
measurement.protocol: Checkerboard combination study / MIC
Format: cell-based, Pseudomonas aeruginosa
assay.setup: MIC of antibiotic combined with compound 2; PA 101243
measure: MICCombination (antibiotic) (µg/mL)

# given.smiles, measure, measured.number
measured = [
    ("C[C@@H](O)[C@H]1C(=O)N2C(C(=O)O)=C(S[C@@H]3CN[C@H](CNS(N)(=O)=O)C3)[C@H](C)[C@H]12", "MICCombination (antibiotic)", 8),
    ("CCN1CCN(C(=O)N[C@@H](C(=O)N[C@@H]2C(=O)N3[C@@H]2SC(C)(C)[C@@H]3C(=O)O)c2ccccc2)C(=O)C1=O", "MICCombination (antibiotic)", 128),
    ("CO/N=C(\\C(=O)N[C@@H]1C(=O)N2C(C(=O)O)=C(COC(C)=O)CS[C@H]12)c1csc(N)n1", "MICCombination (antibiotic)", 128),
    ("CC(C)(O/N=C(\\C(=O)N[C@@H]1C(=O)N2C(C(=O)[O-])=C(C[n+]3ccccc3)CS[C@H]12)c1csc(N)n1)C(=O)O", "MICCombination (antibiotic)", 8),
    ("C[C@@H](O)[C@H]1C(=O)N2C(C(=O)O)=C(S[C@@H]3CN[C@H](C(=O)N(C)C)C3)[C@H](C)[C@H]12", "MICCombination (antibiotic)", 2),
    ("C[C@H]1[C@H](NC(=O)/C(=N\\OC(C)(C)C(=O)O)c2csc(N)n2)C(=O)N1S(=O)(=O)O", "MICCombination (antibiotic)", 8),
]
